Data provenance is ChEMBL document CHEMBL4041469.

Below: a set of entries, each annotated with reported pKi.
- TARGET OF ASSAY: 5-hydroxytryptamine receptor 1A (Homo sapiens, UniProt P08908)
- Sequence (P08908 whole entry): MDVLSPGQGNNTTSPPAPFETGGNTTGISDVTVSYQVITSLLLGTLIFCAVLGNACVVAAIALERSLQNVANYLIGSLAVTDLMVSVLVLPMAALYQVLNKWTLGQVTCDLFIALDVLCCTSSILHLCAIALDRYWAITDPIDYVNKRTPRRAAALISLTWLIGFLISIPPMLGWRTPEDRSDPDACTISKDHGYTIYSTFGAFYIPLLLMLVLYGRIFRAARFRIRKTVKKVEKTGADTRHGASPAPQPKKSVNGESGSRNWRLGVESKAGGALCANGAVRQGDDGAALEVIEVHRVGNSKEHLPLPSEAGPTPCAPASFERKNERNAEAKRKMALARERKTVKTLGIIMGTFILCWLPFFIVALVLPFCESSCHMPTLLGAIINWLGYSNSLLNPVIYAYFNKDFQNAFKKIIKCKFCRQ
- PROTOCOL DESCRIPTION: Displacement of [3H]8-OH-DPAT from recombinant human 5HT1A receptor expressed in human HeLa cell membranes after 30 mins by liquid scintillation counting method
pKi here is simply -log10 of the concentration when that concentration is written in mol/L.

The examples below pair each entry with its known result.
molecule="COc1cccc(OC)c1OCCNCC1COC(c2ccccc2)(c2ccccc2)CO1 (racemic)" target_of_assay="5-hydroxytryptamine receptor 1A (Homo sapiens, UniProt P08908)" measured_result=6.64
molecule="c1ccc(C2(c3ccccc3)COCC(CNCCOc3ccccn3)O2)cc1 (racemic)" target_of_assay="5-hydroxytryptamine receptor 1A (Homo sapiens, UniProt P08908)" measured_result=9.05

Task: Could you share what pKi was measured for COc1ccccc1OCCNCC1COC(c2ccccc2)(c2ccccc2)CO1 (racemic) , tested on 5-hydroxytryptamine receptor 1A (Homo sapiens, UniProt P08908)?
Output: 8.12

Task: Lookup: pKi / 5-hydroxytryptamine receptor 1A (Homo sapiens, UniProt P08908) / COCOc1ccccc1OCCNCC1COCC(c2ccccc2)(c2ccccc2)O1 (racemic)
Output: 9.20

Task: Write down the reported pKi of Clc1ccccc1OCCNCC1COCC(c2ccccc2)(c2ccccc2)O1 (racemic) , test system: 5-hydroxytryptamine receptor 1A (Homo sapiens, UniProt P08908).
Output: 9.10

Task: Lab note: need pKi for c1ccc(OCCNCC2COC(c3ccccc3)(c3ccccc3)CO2)cc1 (racemic) on 5-hydroxytryptamine receptor 1A (Homo sapiens, UniProt P08908), anyone have it?
Output: 7.43

Task: Lab request: please report pKi under test system 5-hydroxytryptamine receptor 1A (Homo sapiens, UniProt P08908) for O=[N+]([O-])c1ccccc1OCCNCC1COCC(c2ccccc2)(c2ccccc2)O1 (racemic)
Output: 9.25

Task: Any idea what pKi came out for Oc1ccccc1OCCNCC1COCC(c2ccccc2)(c2ccccc2)O1 (racemic) on 5-hydroxytryptamine receptor 1A (Homo sapiens, UniProt P08908)?
Output: 9.16

Task: Value wanted: pKi (5-hydroxytryptamine receptor 1A (Homo sapiens, UniProt P08908)) of entry Cc1ccccc1OCCNCC1COCC(c2ccccc2)(c2ccccc2)O1 (racemic)
Output: 8.95
